All figures here come from patent US10633399B2.

smiles_input: O=NN(Cc1ccc(F)cc1F)c1ccc2c(c1)B(O)OC2
melting point: 125 to 127 °C

smiles_input: O=NN(Cc1ccccc1)c1ccc2c(c1)B(O)OC2
melting point: 108 to 110 °C

smiles_input: O=NN(Cc1ccc(Cl)c(Cl)c1)c1ccc2c(c1)B(O)OC2
melting point: 144 to 147 °C

smiles_input: O=C(Nc1ccc([N+](=O)[O-])c(C(F)(F)F)c1)c1ccc(CNc2ccc3c(c2)B(O)OC3)cc1
melting point: 117 to 119 °C

smiles_input: COc1ccc(CN(C(=O)NC2CCCCC2)c2ccc3c(c2)B(O)OC3)cc1
melting point: 156 to 158 °C

* * *

- procedure_summary: Cell viability assay (MTT), MIAPaCa-2
- assay_conditions: human, MIAPaCa-2 pancreatic cancer cells
The threshold is 80%. Values of viability at 72 h, 12.5 µM beneath it are tagged y; values meeting or exceeding it are tagged n.

smiles_input: O=C(Nc1ccccc1)N(Cc1ccccc1)c1ccc2c(c1)B(O)OC2
assigned_label: y
//
smiles_input: COc1ccc(CNc2ccc3c(c2)B(O)OC3)cc1
assigned_label: y
//
smiles_input: Cc1ccc(CNc2ccc3c(c2)B(O)OC3)cc1
assigned_label: y
//
smiles_input: COc1ccc(CN(N=O)c2ccc3c(c2)B(O)OC3)cc1
assigned_label: n
//
smiles_input: OB1OCc2ccc(NCc3ccc4c(c3)OCO4)cc21
assigned_label: n
//
smiles_input: OB1OCc2ccc(NCc3ccc(Cl)c(Cl)c3)cc21
assigned_label: n
//
smiles_input: O=NN(Cc1ccc(F)cc1F)c1ccc2c(c1)B(O)OC2
assigned_label: y
//
smiles_input: OB1OCc2ccc(NCc3ccccc3)cc21
assigned_label: y
//
smiles_input: COc1ccc(CN(C(=O)NCCCl)c2ccc3c(c2)B(O)OC3)cc1
assigned_label: y
//
smiles_input: OB1OCc2ccc(NCc3ccc(F)cc3F)cc21
assigned_label: n
//
smiles_input: O=NN(Cc1ccc(Cl)c(Cl)c1)c1ccc2c(c1)B(O)OC2
assigned_label: n
//
smiles_input: COc1ccc(CN(C(=O)Nc2ccccc2)c2ccc3c(c2)B(O)OC3)cc1
assigned_label: y
//
smiles_input: OB1OCc2ccc(NCc3cc4ccccc4nc3Cl)cc21
assigned_label: y
//
smiles_input: CN(C)c1ccc(CNc2ccc3c(c2)B(O)OC3)cc1
assigned_label: y
//
smiles_input: OB1OCc2ccc(NCc3ccc(Cl)cc3Cl)cc21
assigned_label: n
//
smiles_input: O=C(NCCCl)N(Cc1ccccc1)c1ccc2c(c1)B(O)OC2
assigned_label: n
//
smiles_input: CCCCN(CCCC)c1ccc(CNc2ccc3c(c2)B(O)OC3)cc1
assigned_label: n
//
smiles_input: OB1OCc2ccc(NCc3ccc(F)cc3)cc21
assigned_label: n
//
smiles_input: O=C(NC1CCCCC1)N(Cc1ccccc1)c1ccc2c(c1)B(O)OC2
assigned_label: y
//
smiles_input: COc1ccc(CN(C(=O)NC2CCCCC2)c2ccc3c(c2)B(O)OC3)cc1
assigned_label: y
//
smiles_input: OB1OCc2ccc(NCc3ccc(N4CCCCC4)cc3)cc21
assigned_label: n
//
smiles_input: O=NN(Cc1ccccc1)c1ccc2c(c1)B(O)OC2
assigned_label: n
//
smiles_input: O=C(O)c1ccc(CNc2ccc3c(c2)B(O)OC3)cc1
assigned_label: y
//
smiles_input: O=NN(Cc1ccc(Cl)cc1Cl)c1ccc2c(c1)B(O)OC2
assigned_label: n
